Reference source for all entries: a melting point compilation (Tetko et al.; mined from patent text by program, amines drawn as free bases though some values may be those of a salt)

Reported melting point values are given for each entry in this list.

compound: CCN(CC)CCSc1ccc(/C=C/C(=O)OC)cc1[N+](=O)[O-]
melting point: 57.4 to 59.1 °C
--
compound: COC(=O)c1ccc(C(=O)N[C@@H](CC(C)C)C(=O)N[C@@H](C(C)C)[C@@H](O)c2c(-c3ccccc3)c2=O)cc1
melting point: 125 to 128 °C
--
compound: Cc1c(OCC(F)(F)F)ccnc1CSc1nc2ccccc2n1NCCCO
melting point: 113 to 114 °C
--
compound: CC(CCC(O)C(C)(C)O)C1CCC2C3=CC=C4CC(O)CCC4(C)C3CCC21C (stereo not given)
melting point: 216 to 218 °C
--
compound: O=C(C=Cc1ccc(F)cc1)c1ccc(C(F)(F)F)cc1
melting point: 89 to 92 °C
--
compound: CN(C)CCNC(=O)c1ccccc1-c1nnc(CSCCOc2ccccc2)o1
melting point: 80 to 85 °C
--
compound: COc1ccc(S(N)(=O)=O)cc1C(C)O (stereo not given)
melting point: 165 to 166 °C
--
compound: Fc1cc(Br)cc(OCc2ccc3ccccc3c2)c1
melting point: 65 to 67 °C
--
compound: COc1cc2ncnc(N3CCC(CCNS(C)(=O)=O)CC3)c2cc1OC
melting point: 162 to 164 °C
--
compound: NC(N)=NC(=O)Cc1c(-c2ccccc2Cl)csc1-c1ccc(Oc2ccccc2)cc1
melting point: 76 to 78 °C
